The reported numbers originate from PubChem BioAssay AID488969.

- system: Metabotropic glutamate receptor 8 (Rattus norvegicus)
- assay overview: mGluR8 Gi/Go-coupled signaling modulation – cell-based, rat, thallium flux, HTS, primary screen (AID 488969)
- setup conditions: HEK293 rat mGluR8, GIRK (G protein-gated inwardly rectifying potassium channel) thallium flux, FluoZin2; at 10 µM; stronger effect = higher value; submaximal glutamate (EC20) added with thallium
In all, about 110,000 compounds were measured (“z-score”: median about -0.1, highest 2% from about 2 on). This excerpt belongs to a sample that is enriched for the highest values.
value type: z-score
Form field (numeric): enter value without unit.

Some entries whose results are on file:
{"columns": ["molecule", "system", "z-score"],
 "data": [
  ["c1ccc(-c2ccccc2-c2nc(-c3ccncc3)no2)cc1", "Metabotropic glutamate receptor 8 (Rattus norvegicus)", -0.475],
  ["O=C(O/N=C\\c1ccc(N2CCCCC2)c([N+](=O)[O-])c1)c1c(F)cccc1F", "Metabotropic glutamate receptor 8 (Rattus norvegicus)", 2.03],
  ["CCCC1COC(Cn2cncn2)(c2ccc(C)cc2)O1 (stereo not given)", "Metabotropic glutamate receptor 8 (Rattus norvegicus)", 10.6],
  ["Cc1oc(-c2cccc(Cl)c2)nc1CN1CCC(C(=O)NCc2ccco2)CC1", "Metabotropic glutamate receptor 8 (Rattus norvegicus)", -4.86]
]}

# context switch: different molecule, same z-score
QUERY: Report z-score for CSc1nnc(C2CCCN2)n1C (stereo not given) please.
RESULT: 0.383
